Values were extracted from paper PMC7156458.

So I've got a bunch of compounds here, and I need their Th-T fluorescence, mean of three wells values.
- subject_of_test: Aβ42 (Homo sapiens)
- Sequence (P05067 672-713): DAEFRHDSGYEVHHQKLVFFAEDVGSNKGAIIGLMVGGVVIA
- assay_text: Th-T (thioflavin-T) assay of Aβ42 aggregation
- Format: biochemical
- test_conditions: Supplementary Fig. 47 source data; measurement M43 of time course
Form rule: numeric answer, no unit written next to it.

# input compound: C=C1CC[C@@H]2[C@](C)(CC[C@H]3O[C@H](C=C(C)C)C[C@@]23C)[C@@H]1Cc1c(O)c(C)c(C)oc1=O ; wanted: its Th-T fluorescence, mean of three wells
3.089

Look up Th-T fluorescence, mean of three wells for this compound: C=C1CCC2C(C)(CC(=O)C=C(C)C)C(O)CCC2(C)C1Cc1c(OC)oc(CO)c(C)c1=O (stereo not drawn)
3.5042

May I ask what Th-T fluorescence, mean of three wells has been recorded for C=C1CC[C@H]2[C@]3(C)C[C@H](C=C(C)C)O[C@H]3CC[C@]2(C)[C@@H]1Cc1c(O)c(C)c(C)oc1=O ?
3.079

Which measured Th-T fluorescence, mean of three wells value corresponds to C=C1CC[C@H]2[C@]3(C)C[C@H](C=C(C)C)O[C@H]3CC[C@]2(C)[C@@H]1Cc1c(OC)oc(C)c(C)c1=O ?
4.101

For the compound C=C1CCC2C(C)(CCC=C(C)C)C(=O)CCC2(C)C1Cc1c(O)c(C)c(C)oc1=O (stereo not drawn) , what Th-T fluorescence, mean of three wells is on record?
2.197

Sample C=C1CC[C@H]2[C@]3(C)C[C@H](C=C(C)C)O[C@H]3CC[C@]2(C)[C@@H]1Cc1c(OC)oc(CO)c(C)c1=O — what was its Th-T fluorescence, mean of three wells?
3.853

Quick check: Th-T fluorescence, mean of three wells of C=C1CCC2C3(C)CC(C=C(C)C)OC3CCC2(C)C1Cc1c(OC)oc(C)c(C)c1=O (stereo not drawn) ?
3.96

What value of Th-T fluorescence, mean of three wells has been recorded for this entry: C=C1CCC2C(C)(CC(=O)C=C(C)C)C(O)CCC2(C)C1Cc1c(OC)oc(C)c(C)c1=O (stereo not drawn)
3.698

Requested read-out: Th-T fluorescence, mean of three wells. Entry: C=C1CC[C@H]2[C@]3(C)C[C@@H](C=C(C)C)O[C@H]3CC[C@]2(C)[C@@H]1Cc1c(OC)oc(CO)c(C)c1=O
3.406

For the compound C=C1CC[C@H]2[C@]3(C)C[C@@H](C=C(C)C)O[C@H]3CC[C@]2(C)[C@@H]1Cc1c(O)c(C)c(C)oc1=O , what Th-T fluorescence, mean of three wells is on record?
2.6737

I have this compound here, CC(C)=CCC/C(C)=C/CC/C(C)=C/CC/C(C)=C/Cc1c(O)c(C)c(C)oc1=O , and I need its recorded Th-T fluorescence, mean of three wells.
2.8204

GET /values?readout=Th-T fluorescence, mean of three wells&item= C=C1CCC2C(C)(CC(=O)C=C(C)C)C(O)CCC2(C)C1Cc1c(O)c(C)c(C)oc1=O (stereo not drawn)
3.54
